Source listed as patent US20250000869A1.

experimental-details: Solubility screening of Compound 1 in various solvents/solvent systems
Format: physicochemical
details: 8% polysorbate 80 in phosphate buffer + 3% benzyl alcohol, pH 6.5, aqueous with cosolvent or surfactant or cyclodextrin, 8% polysorbate 80 in PB + 3% benzyl alcohol; PB = Phosphate buffer 10 mmol/L pH 6.5; read-out: Determined Solubility
property-measured: solubility (µg/mL)
Kindly provide the numeric value in µg/mL only, without the unit symbol.

QUERY: // solubility lookup, key: CCCOc1ccc(S(=O)(=O)N2CCC(CCO[N+](=O)[O-])CC2)cc1-c1nn2c(CCC)c(/C=N/O)c(C)c2c(=O)[nH]1
RESULT: 56

----------
experimental-details: Solubility screening of Compound 1 in various solvents/solvent systems
Format: physicochemical
details: 3% polysorbate 80 in phosphate buffer, pH 6.5, aqueous with cosolvent or surfactant or cyclodextrin, 3% polysorbate 80 in PB; PB = Phosphate buffer 10 mmol/L pH 6.5; read-out: Determined Solubility
property-measured: solubility (µg/mL)
Kindly provide the numeric value in µg/mL only, without the unit symbol.

QUERY: // solubility lookup, key: CCCOc1ccc(S(=O)(=O)N2CCC(CCO[N+](=O)[O-])CC2)cc1-c1nn2c(CCC)c(/C=N/O)c(C)c2c(=O)[nH]1 [Compound 1]
RESULT: 139

----------
experimental-details: Solubility screening of Compound 1 in various solvents/solvent systems
Assay type: physicochemical
details: pH 6.5, aqueous with cosolvent or surfactant or cyclodextrin, PEG 400/PB (30:70, vol:vol) + 3% polysorbate 80; PB = Phosphate buffer 10 mmol/L pH 6.5; read-out: Determined Solubility
property-measured: solubility

QUERY: // solubility lookup, key: CCCOc1ccc(S(=O)(=O)N2CCC(CCO[N+](=O)[O-])CC2)cc1-c1nn2c(CCC)c(/C=N/O)c(C)c2c(=O)[nH]1 [Compound 1]
RESULT: 0.02 mg/mL

----------
experimental-details: Solubility of Compound 1 in solvent systems comprising PEG400
Format: physicochemical
details: aqueous with cosolvent or surfactant or cyclodextrin; PEG400:benzyl alcohol:phosphate buffer (64:1:35) vol:vol; Phosphate buffer 12 mmol/L pH 6.7; room temperature; read-out: Determined Solubility
property-measured: solubility (µg/mL)
Kindly provide the numeric value in µg/mL only, without the unit symbol.

QUERY: // solubility lookup, key: CCCOc1ccc(S(=O)(=O)N2CCC(CCO[N+](=O)[O-])CC2)cc1-c1nn2c(CCC)c(/C=N/O)c(C)c2c(=O)[nH]1
RESULT: 37

----------
experimental-details: Solubility of Compound 1 in solvent systems comprising PEG400
Format: physicochemical
details: aqueous with cosolvent or surfactant or cyclodextrin; PEG400:benzyl alcohol:phosphate buffer (54:1:45) vol:vol; Phosphate buffer 12 mmol/L pH 6.7; room temperature; read-out: Determined Solubility
property-measured: solubility (µg/mL)
Kindly provide the numeric value in µg/mL only, without the unit symbol.

QUERY: // solubility lookup, key: CCCOc1ccc(S(=O)(=O)N2CCC(CCO[N+](=O)[O-])CC2)cc1-c1nn2c(CCC)c(/C=N/O)c(C)c2c(=O)[nH]1
RESULT: 5

----------
experimental-details: Solubility screening of Compound 1 in various solvents/solvent systems
Format: physicochemical
details: 8% polysorbate 80 in phosphate buffer, pH 6.5, aqueous with cosolvent or surfactant or cyclodextrin, 8% polysorbate 80 in PB; PB = Phosphate buffer 10 mmol/L pH 6.5; read-out: Determined Solubility
property-measured: solubility (µg/mL)
Kindly provide the numeric value in µg/mL only, without the unit symbol.

QUERY: // solubility lookup, key: CCCOc1ccc(S(=O)(=O)N2CCC(CCO[N+](=O)[O-])CC2)cc1-c1nn2c(CCC)c(/C=N/O)c(C)c2c(=O)[nH]1 [Compound 1]
RESULT: 67
